# pIC50 listing for each entry below
- target-or-test-system: recombinant 15-PGDH (Homo sapiens (Human), UniProt P15428)
- Sequence (P15428 whole entry): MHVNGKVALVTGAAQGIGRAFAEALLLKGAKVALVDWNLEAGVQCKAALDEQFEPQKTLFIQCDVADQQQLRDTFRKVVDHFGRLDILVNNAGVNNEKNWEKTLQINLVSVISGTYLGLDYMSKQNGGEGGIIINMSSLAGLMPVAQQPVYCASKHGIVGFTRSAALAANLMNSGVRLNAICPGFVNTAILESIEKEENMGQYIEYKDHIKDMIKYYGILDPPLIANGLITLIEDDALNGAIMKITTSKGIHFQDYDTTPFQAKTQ
- procedure-details: Enzyme inhibition of recombinant 15-PGDH, in vitro assay
- Format: biochemical
- condition-info: recombinant human 15-PGDH; read-out: Enzyme inhibition (IC50)
pIC50: −log10 of the molar value.
measured-property: pIC50

# compound, result
rows = [
    ("COc1ccc(-c2cc(C(F)(F)F)n3nc(C(=O)N4CCCC(C(F)(F)F)C4)cc3n2)cc1 (stereo not drawn) [64a]", "6.30 to 7.00"),
    ("CNc1cc(-c2ccc(OC)cc2)nc2cc(C(=O)N3CCCCC3)nn12 [31a]", "7.00 to 7.70"),
    ("COc1ccc(-c2cc(C(F)(F)F)n3nc(C(=O)N4CCCC(CF)C4)cc3n2)cc1 (stereo not drawn) [58a]", "7.00 to 7.70"),
    ("O=C(c1cc2nc(-c3ccc(O)cc3)cc(C(F)(F)F)n2n1)N1CCCCC1 [68a]", "< 5.60"),
    ("CCCC[S+]([O-])c1cc2nc(-c3ccc(OC)cc3)cc(-c3cccnc3)n2n1 (stereo not drawn) [51a]", "5.60 to 6.30"),
    ("O=C(c1cc2nc(-c3cncnc3)cc(C(F)(F)F)n2n1)N1CCCCC1 [37a]", "< 5.60"),
    ("O=C(c1cc2nc(-c3cccs3)cc(C(F)(F)F)n2n1)N1CCCCC1 [42a]", "< 5.60"),
    ("CC1CCCCN1C(=O)c1ccc2nc(-c3ccccc3)c(-c3ccccc3)nc2c1 (stereo not drawn) [29b]", "6.30 to 7.00"),
    ("COc1ccc(-c2cc(C(F)(F)F)n3nc(C(=O)N4CCCC(F)(F)C4)cc3n2)cc1 [65a]", 7.00),
]

###

- target-or-test-system: recombinant 15-PGDH (Homo sapiens (Human))
- procedure-details: Enzyme inhibition of recombinant 15-PGDH, in vitro assay
- Assay type: biochemical
pIC50: −log10 of the molar value.
measured-property: pIC50

# molecule, measured-property, result
records = [
    ("COc1ccc(-c2cc(C(F)(F)F)n3nc(C(=O)N4CCC(=O)CC4)cc3n2)cc1 [13a]", "pIC50", "5.60 to 6.30"),
]

###

- target-or-test-system: recombinant 15-PGDH (Homo sapiens (Human), UniProt P15428)
- procedure-details: Enzyme inhibition of recombinant 15-PGDH, in vitro assay
- Type: biochemical
- condition-info: recombinant human 15-PGDH; read-out: Enzyme inhibition (IC50)

# compound, target-or-test-system, IC50
data = [
    ("COc1ccc(-c2cc(C(F)(F)F)n3nc(C(=O)N4CCC(F)(F)CC4)cc3n2)cc1 [59a]", "recombinant 15-PGDH (Homo sapiens (Human), UniProt P15428)", "100 to 500 nM"),
    ("Cc1cc(-c2nc3cc(C(=O)N4CCCCC4)ccc3nc2-c2ccccc2)ccn1 [38b]", "recombinant 15-PGDH (Homo sapiens (Human), UniProt P15428)", "20 nM"),
    ("Nc1ccc(-c2cnc3ccc(C(=O)N4CCCCC4)cc3n2)cc1 [63b]", "recombinant 15-PGDH (Homo sapiens (Human), UniProt P15428)", "4 to 20 nM"),
    ("CCCC[S+]([O-])c1cc2nc(-c3ccc(OC)cc3)cc(-c3c(C)nn(C)c3C)n2n1 (centres unmarked) [74a]", "recombinant 15-PGDH (Homo sapiens (Human), UniProt P15428)", "20 to 100 nM"),
    ("O=C(c1ccc2nc(-c3ccccc3)c(-c3ccc(F)nc3)nc2c1)N1CCCCC1 [35b]", "recombinant 15-PGDH (Homo sapiens (Human), UniProt P15428)", "20 to 100 nM"),
]

###

- target-or-test-system: recombinant 15-PGDH (Homo sapiens (Human))
- procedure-details: Enzyme inhibition of recombinant 15-PGDH, in vitro assay
- Type: biochemical
- condition-info: recombinant human 15-PGDH; read-out: Enzyme inhibition (IC50)

# compound, IC50
data = [
    ("Cc1c(C(N)=O)[nH]c2ccc(-c3cnc4ccc(C(=O)N5CCCCC5)cc4n3)cc12 [93b]", "< 4 nM"),
    ("COc1ccc(-c2cc(C(F)(F)F)n3nc(C(=O)N4CCC(C)CC4)cc3n2)cc1 [18a]", "30.6 nM"),
    ("O=C(c1ccc2ncc(-c3ccc(F)cc3)nc2c1)N1CCCCC1 [42b]", "4 to 20 nM"),
    ("COc1ccc(-c2cc(-c3cccnc3)n3nc(C(=O)N4CCCCC4)cc3n2)cc1 [23a]", "~100 nM"),
    ("CC(C)(O)Cn1ccc2cc(-c3cnc4ccc(C(=O)N5CCCCC5)cc4n3)ccc2c1=O [89b]", "~4 nM"),
    ("COc1ccc(-c2cc(C(F)(F)F)n3nc(C(=O)N4CCC(NC(=O)OC(C)(C)C)CC4)cc3n2)cc1 [14a]", "100 to 500 nM"),
    ("COc1ccc(-c2cc(C(F)(F)F)n3nc(C(=O)N4CCCC(C(F)F)C4)cc3n2)cc1 (stereo not shown) [66a]", "20 to 100 nM"),
    ("O=C(NCc1ccccc1)c1ccc2nc(-c3ccccc3)c(-c3ccccc3)nc2c1 [15b]", "> 2500 nM"),
    ("Cc1ccc(-c2cc(C(F)(F)F)n3nc(C(=O)N4CCCCC4)cc3n2)cc1 [40a]", "395 nM"),
    ("O=C(c1cc2nc(-c3ccc(C(F)(F)F)cc3)cc(C(F)(F)F)n2n1)N1CCCCC1 [47a]", "> 2500 nM"),
    ("COc1ccc(-c2cc(C(F)(F)F)n3nc(C(=O)N4CCCC4)cc3n2)cc1 [9a]", "> 2500 nM"),
    ("CCCCS(=O)(=O)c1ccc2nc(-c3ccccc3)c(-c3ccccc3)nc2c1 [4b]", "> 2500 nM"),
    ("O=C(c1cc2ncc(-c3ccccc3)cn2n1)N1CCCCC1 [41a]", "768 nM"),
    ("O=C(c1ccc2ncc(-c3cccc(F)c3)nc2c1)N1CCCCC1 [41b]", "4 to 20 nM"),
    ("O=C(c1cc2nc(N3CCCCC3)cc(C(F)(F)F)n2n1)N1CCCCC1 [39a]", "660 nM"),
    ("CCCCSc1ccc2nc(-c3ccccc3)c(-c3ccccc3)nc2c1 [2b]", "> 2500 nM"),
    ("COc1ccc(-c2cc(C(F)(F)F)n3nc(C(=O)N4CCC(C(F)(F)F)CC4)cc3n2)cc1 [60a]", "500 to 2500 nM"),
    ("COc1ccc(-c2cc(-c3ccc(F)nc3)n3nc(C(=O)N4CCCCC4)cc3n2)cc1 [27a]", "> 500 nM"),
    ("CCOc1ccc(-c2cc(C(F)(F)F)n3nc(C(=O)N4CCCCC4)cc3n2)cc1 [69a]", "500 to 2500 nM"),
    ("CC1CCCN(C(=O)c2cc3nc(-c4ccc(Cl)cc4)cc(C(F)(F)F)n3n2)C1 (stereo not shown) [75a]", "20 to 100 nM"),
    ("O=C(O)c1ccc2nc(-c3ccccc3)c(-c3ccccc3)nc2c1 [21b]", "> 2500 nM"),
    ("CCCC[S+]([O-])c1cc2nc(-c3ccc(OC)cc3)cc(-c3cn(C)nc3C)n2n1 (stereo not shown) [73a]", "500 nM"),
    ("O=C(NCCO)c1ccc2nc(-c3ccccc3)c(-c3ccccc3)nc2c1 [17b]", "> 2500 nM"),
    ("CCCC[S+]([O-])c1cc2nc(-c3ccc(OC)cc3)cc(-c3cncnc3)n2n1 (stereo not shown) [52a]", "2500 nM"),
    ("C=CCNC(=O)c1ccc2nc(-c3ccccc3)c(-c3ccccc3)nc2c1 [19b]", "> 2500 nM"),
    ("COc1ccc(-c2cc(-c3ccccn3)n3nc(C(=O)N4CCCCC4)cc3n2)cc1 [24a]", "20 to 100 nM"),
    ("CCCC[S+]([O-])c1nc2nc(-c3ccc(OC)cc3)cc(C(F)(F)F)n2n1 (stereo not shown) [49a]", "> 2500 nM"),
    ("COc1ccc(-c2cc(-c3ccccc3)n3nc(C(=O)N4CCCCC4)cc3n2)cc1 [34a]", "> 500 nM"),
    ("O=C(c1cc2nc(-c3ccccc3)cc(C(F)(F)F)n2n1)N1CCCCC1 [61a]", "> 2500 nM"),
    ("COc1ccc(-c2cc(C(F)(F)F)n3nc(C(=O)N4CC(C)CC(C)C4)cc3n2)cc1 (stereo not shown) [57a]", "100 nM"),
    ("O=C(c1cc2nc(-c3ccc(F)cc3)cc(C(F)(F)F)n2n1)N1CCCCC1 [36a]", "30.7 nM"),
    ("CCCC[S+]([O-])c1cc2nc(-c3ccc(OC)cc3)cc(-c3ccnn3C)n2n1 (stereo not shown) [72a]", "4 to 20 nM"),
    ("O=C(c1cc2nc(-c3ccc(Cl)cc3)cc(C(F)(F)F)n2n1)N1CCCCC1 [56a]", "> 2500 nM"),
    ("CCCC[S+]([O-])c1cc2nc(-c3ccc(OC)cc3)cc(-c3cnc(C)n3C)n2n1 (stereo not shown) [70a]", "100 to 500 nM"),
    ("COc1ccc(-c2cc(N(C)C)n3nc(C(=O)N4CCCCC4)cc3n2)cc1 [32a]", "33.4 nM"),
    ("Nc1nc2ccc(-c3cnc4ccc(C(=O)N5CCCCC5)cc4n3)cc2s1 [95b]", "< 4 nM"),
    ("COc1ccc(-c2cc(C(F)(F)F)n3nc(C(=O)N4CCCC(C)C4)cc3n2)cc1 (stereo not shown) [19a]", "14.6 nM"),
]
